Recorded melting point for the following compounds
REPORTED ENDPOINT: melting point

C=CCCCSC1NN=C(c2ccncc2)N1c1ccccc1 (centres unmarked)    132 to 133 °C
CCN(CC)Cn1nc(-c2ccncc2)n(-c2ccccc2)c1=S    216 to 217 °C
S=c1n(CNc2ccc(Br)cc2)nc(-c2ccncc2)n1-c1ccccc1    208 to 209 °C
C#CCSC1NN=C(c2ccncc2)N1c1ccccc1 (centres unmarked)    151 to 152 °C
CCCC(C)SC1NN=C(c2ccncc2)N1c1ccccc1 (centres unmarked)    96 to 97 °C

* * *

Recorded Selectivity index (COX-1/COX-2) for the following compounds
target: ovine COX-2 (Ovis aries); construct: purchased Cayman Chemicals, USA; experiment: In vitro COX inhibition assay, colorimetric COX (ovine) inhibitor screening kit, COX-2; assay type: biochemical; conditions: ratio of IC50 COX-1 / IC50 COX-2
Sequence (P79208 17-603): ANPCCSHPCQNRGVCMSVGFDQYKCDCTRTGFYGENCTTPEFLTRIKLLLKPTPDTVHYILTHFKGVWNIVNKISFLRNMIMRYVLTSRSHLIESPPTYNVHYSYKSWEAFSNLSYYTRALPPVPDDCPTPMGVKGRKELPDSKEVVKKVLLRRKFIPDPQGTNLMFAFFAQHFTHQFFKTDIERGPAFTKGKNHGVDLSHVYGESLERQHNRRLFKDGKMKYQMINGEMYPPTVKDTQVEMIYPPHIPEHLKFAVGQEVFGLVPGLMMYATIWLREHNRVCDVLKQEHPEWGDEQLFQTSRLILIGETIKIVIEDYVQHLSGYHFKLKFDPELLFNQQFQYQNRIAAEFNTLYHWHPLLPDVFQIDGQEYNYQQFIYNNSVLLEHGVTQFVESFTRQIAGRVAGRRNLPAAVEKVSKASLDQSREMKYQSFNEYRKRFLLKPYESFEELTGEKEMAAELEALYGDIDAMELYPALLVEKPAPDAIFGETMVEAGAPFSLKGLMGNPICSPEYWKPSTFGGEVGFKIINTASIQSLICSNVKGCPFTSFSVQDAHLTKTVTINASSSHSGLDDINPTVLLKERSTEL
REPORTED ENDPOINT: Selectivity index (COX-1/COX-2)

S=c1n(CN2CCCC2)nc(-c2ccncc2)n1-c1ccccc1    4.11
CCOC(=O)n1nc(-c2ccncc2)n(-c2ccccc2)c1=S    1.18
S=c1n(CNc2ccc(Br)cc2)nc(-c2ccncc2)n1-c1ccccc1    1.64
CCN(CC)Cn1nc(-c2ccncc2)n(-c2ccccc2)c1=S    3.46
CN(C)Cn1nc(-c2ccncc2)n(-c2ccccc2)c1=S    3.44
OCn1nc(-c2ccncc2)n(-c2ccccc2)c1=S    4.38
C=CCCCSc1nnc(-c2ccncc2)n1-c1ccccc1    1.69
C#CCSc1nnc(-c2ccncc2)n1-c1ccccc1    1.42
CCCC(C)Sc1nnc(-c2ccncc2)n1-c1ccccc1 (centres unmarked)    2.64
CN(CCO)Cn1nc(-c2ccncc2)n(-c2ccccc2)c1=S    2.14
S=c1n(CNCc2ccc(Cl)cc2)nc(-c2ccncc2)n1-c1ccccc1    1.38
